- Assay procedure: Approximate solubility at 25° C. (visual observation)
- Format: physicochemical
- Measurement conditions: ethanol, organic solvent or mixture, thermodynamic from solid, polymorph screening batch
Measurement label: Solubility

Asked: If you can, please state the reported Solubility value of N#Cc1c(-c2cc(NC(=O)c3cc(F)cc(C(F)(F)F)c3)c3c(c2)C(=O)N[C@H]3c2cc(F)ccc2Cl)ccc2ncnn12 .
Given back: 6000 to 7000 µg/mL

====

- Assay procedure: Approximate solubility at 25° C. (visual observation)
- Assay type: physicochemical
- Measurement conditions: acetonitrile, organic solvent or mixture, thermodynamic from solid, polymorph screening batch
- Experimental: Max. volume of each solvent added was 1 mL. Approximate solubility was determined by visual observation.
Measurement label: Solubility

Asked: If you can, please state the reported Solubility value of N#Cc1c(-c2cc(NC(=O)c3cc(F)cc(C(F)(F)F)c3)c3c(c2)C(=O)N[C@H]3c2cc(F)ccc2Cl)ccc2ncnn12 [Compound I-1] .
Given back: 10 to 11 mg/mL

====

- Assay procedure: Approximate solubility at 25° C. (visual observation)
- Type: physicochemical
- Measurement conditions: methanol, organic solvent or mixture, thermodynamic from solid, starting material for salt screening
Measurement label: Solubility

Asked: If you can, please state the reported Solubility value of N#Cc1c(-c2cc(NC(=O)c3cc(F)cc(C(F)(F)F)c3)c3c(c2)C(=O)N[C@H]3c2cc(F)ccc2Cl)ccc2ncnn12 .
Given back: 12 to 17 mg/mL

====

- Assay procedure: Approximate solubility at 25° C. (visual observation)
- Assay type: physicochemical
- Measurement conditions: acetone, organic solvent or mixture, thermodynamic from solid, polymorph screening batch
Measurement label: Solubility

Asked: If you can, please state the reported Solubility value of N#Cc1c(-c2cc(NC(=O)c3cc(F)cc(C(F)(F)F)c3)c3c(c2)C(=O)N[C@H]3c2cc(F)ccc2Cl)ccc2ncnn12 .
Given back: 43 to 52 mg/mL

====

- Assay procedure: Approximate solubility at 25° C. (visual observation)
- Assay type: physicochemical
- Measurement conditions: ethanol, organic solvent or mixture, thermodynamic from solid, starting material for salt screening
Measurement label: Solubility

Asked: If you can, please state the reported Solubility value of N#Cc1c(-c2cc(NC(=O)c3cc(F)cc(C(F)(F)F)c3)c3c(c2)C(=O)N[C@H]3c2cc(F)ccc2Cl)ccc2ncnn12 [Compound I-1] .
Given back: < 5000 µg/mL

====

- Assay procedure: Solubility study at 37° C. (buffer, water, bio-relevant media, MeOH/DCM)
- Assay type: physicochemical
- Measurement conditions: MeOH/DCM (1:2, v/v), 37 °C, organic solvent or mixture, thermodynamic from solid, MeOH/DCM (1:2, v/v), 24 hours
Measurement label: solubility at 24 h

Asked: If you can, please state the reported solubility at 24 h value of N#Cc1c(-c2cc(NC(=O)c3cc(F)cc(C(F)(F)F)c3)c3c(c2)C(=O)N[C@H]3c2cc(F)ccc2Cl)ccc2ncnn12 [Compound I-1] .
Given back: > 145 mg/mL

====

- Assay procedure: Approximate solubility at 25° C. (visual observation)
- Assay type: physicochemical
- Measurement conditions: tetrahydrofuran, organic solvent or mixture, thermodynamic from solid, polymorph screening batch
Measurement label: Solubility

Asked: If you can, please state the reported Solubility value of N#Cc1c(-c2cc(NC(=O)c3cc(F)cc(C(F)(F)F)c3)c3c(c2)C(=O)N[C@H]3c2cc(F)ccc2Cl)ccc2ncnn12 .
Given back: 52 to 65 mg/mL
